Assay: Example 5: plasma pharmacokinetics of EN3202 20 mg in hepatic impairment vs healthy controls
Details: human, plasma, oral, 20 mg, T½, Moderate-Severe Impairment; mean (SD)
READOUT_LABEL: half-life
Please report the result as a number followed by the unit.

Data request: Give recorded half-life. CN1CC[C@]23c4c5ccc(O)c4O[C@H]2C(=O)CC[C@@]3(O)[C@H]1C5.Cl
Data returned: 8.04 h

---

Assay: Example 5: plasma pharmacokinetics of EN3202 20 mg in hepatic impairment vs healthy controls
Details: human, plasma, oral, 20 mg, AUC, Subject 011 (Child-Pugh Class C)
READOUT_LABEL: AUC (ng·h/mL)
Dear colleague, please return just the value in ng·h/mL, with no unit written.

Data request: Give recorded AUC. CN1CC[C@]23c4c5ccc(O)c4O[C@H]2C(=O)CC[C@@]3(O)[C@H]1C5.Cl
Data returned: 250
